Where do these numbers come from? They come from ChEMBL document CHEMBL1629449.

Answer each item with its documented IC50.
Target: Myeloperoxidase (Homo sapiens, UniProt P05164)
Sequence (P05164 165-273 limits assumed): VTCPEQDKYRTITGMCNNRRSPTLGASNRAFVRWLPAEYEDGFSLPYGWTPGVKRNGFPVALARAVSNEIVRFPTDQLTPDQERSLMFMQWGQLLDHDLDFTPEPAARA
Sequence (P05164 279-745 limits assumed): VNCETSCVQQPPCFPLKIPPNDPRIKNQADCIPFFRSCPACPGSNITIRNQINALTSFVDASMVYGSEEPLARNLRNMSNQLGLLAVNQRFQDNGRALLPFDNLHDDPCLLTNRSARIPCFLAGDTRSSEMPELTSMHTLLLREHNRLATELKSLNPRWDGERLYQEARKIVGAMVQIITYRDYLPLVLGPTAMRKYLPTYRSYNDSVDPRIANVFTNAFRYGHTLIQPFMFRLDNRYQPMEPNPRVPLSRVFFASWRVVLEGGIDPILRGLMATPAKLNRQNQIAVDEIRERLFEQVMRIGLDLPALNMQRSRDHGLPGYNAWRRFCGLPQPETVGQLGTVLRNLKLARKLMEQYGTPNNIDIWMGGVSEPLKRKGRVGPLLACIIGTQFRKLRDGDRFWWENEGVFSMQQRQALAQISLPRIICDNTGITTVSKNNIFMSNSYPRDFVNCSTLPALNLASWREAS
Assay: Inhibition of recombinant MPO mediated taurine chlorination by microplate reader method
Type: single protein
Please format your answer as a value with the unit trailing.

Worked cases, answers included:
chemicalStructure	result
CCNCCc1c[nH]c2ccc(F)cc12	300 nM
CCCCNCCCc1c[nH]c2ccc(F)cc12	1500 nM
Fc1ccc2[nH]cc(CCCN3CCCC3)c2c1	320 nM
CCCNCCc1c[nH]c2ccc(F)cc12	800 nM
CCCNCCCc1c[nH]c2ccc(F)cc12	170 nM

Hello, I would appreciate it if you could give IC50 for each entry below.
1. CNCCc1c[nH]c2ccc(F)cc12
2. CN1CCN(CCCc2c[nH]c3ccc(F)cc23)CC1
3. CCN(CC)CCCc1c[nH]c2ccc(F)cc12
4. CCN(CC)Cc1c[nH]c2ccc(F)cc12
5. NCc1c[nH]c2ccc(F)cc12
6. CN1CCN(Cc2c[nH]c3ccc(F)cc23)CC1

1: 200 nM; 2: 350 nM; 3: 350 nM; 4: 200 nM; 5: 900 nM; 6: 1000 nM

Hello, I would appreciate it if you could give IC50 for each entry below.
1. CCNCCCc1c[nH]c2ccc(F)cc12
2. CN1CCN(CCc2c[nH]c3ccc(F)cc23)CC1

["300 nM", "200 nM"]

Hello, I would appreciate it if you could give IC50 for each entry below.
1. CCCCNCCc1c[nH]c2ccc(F)cc12
2. CNCCCc1c[nH]c2ccc(F)cc12

1030 nM
200 nM
